Give measured IC50 for each item. Keep answers brief.
Target: Recombinant human HDAC8 (Homo sapiens, UniProt Q9BY41)
Construct: purchased Enzo Life Sciences BML-SE145-0100
Sequence (Q9BY41 whole entry): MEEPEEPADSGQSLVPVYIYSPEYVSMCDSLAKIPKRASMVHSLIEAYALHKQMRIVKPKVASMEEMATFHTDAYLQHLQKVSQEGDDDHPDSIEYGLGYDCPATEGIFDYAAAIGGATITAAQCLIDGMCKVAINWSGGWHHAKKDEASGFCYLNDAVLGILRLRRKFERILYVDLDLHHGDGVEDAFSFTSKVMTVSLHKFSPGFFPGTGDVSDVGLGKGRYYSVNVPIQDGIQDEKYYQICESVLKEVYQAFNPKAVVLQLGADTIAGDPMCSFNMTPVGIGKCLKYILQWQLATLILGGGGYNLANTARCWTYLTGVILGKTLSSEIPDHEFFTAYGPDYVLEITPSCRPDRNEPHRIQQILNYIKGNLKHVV
Assay: Human HDAC enzyme inhibitor Fluor-de-Lys assay, HDAC8
Assay type: biochemical
Conditions: recombinant human HDAC8, Fluor-de-Lys assay
Write the answer as a number in µM, unit excluded.

The molecule identified as CCC(=O)CCCCC[C@H](NC(=O)C1CCC2(CC1)CN(C(C)C)C2)c1ncc(-c2cc3ccccc3nc2OC)[nH]1 [Compound 272] registered its IC50 at 1.25

The molecule identified as CCOc1ncc(-c2cnc([C@H](CCCCCC(=O)CC)NC(=O)[C@H]3CC34CCN(C)CC4)[nH]2)cn1 [Compound 266] registered its IC50 at 19.3

The molecule identified as CCC(=O)CCCCC[C@H](NC(=O)[C@H]1CC12CCN(C)CC2)c1ncc(-c2ccc3c(c2)c2ccccc2n3C)[nH]1 [Compound 265] registered its IC50 at 4.6

----------
Biological target: Recombinant human HDAC1 (Homo sapiens, UniProt Q13547)
Construct: FLAG (C); made in house
Sequence (Q13547 whole entry): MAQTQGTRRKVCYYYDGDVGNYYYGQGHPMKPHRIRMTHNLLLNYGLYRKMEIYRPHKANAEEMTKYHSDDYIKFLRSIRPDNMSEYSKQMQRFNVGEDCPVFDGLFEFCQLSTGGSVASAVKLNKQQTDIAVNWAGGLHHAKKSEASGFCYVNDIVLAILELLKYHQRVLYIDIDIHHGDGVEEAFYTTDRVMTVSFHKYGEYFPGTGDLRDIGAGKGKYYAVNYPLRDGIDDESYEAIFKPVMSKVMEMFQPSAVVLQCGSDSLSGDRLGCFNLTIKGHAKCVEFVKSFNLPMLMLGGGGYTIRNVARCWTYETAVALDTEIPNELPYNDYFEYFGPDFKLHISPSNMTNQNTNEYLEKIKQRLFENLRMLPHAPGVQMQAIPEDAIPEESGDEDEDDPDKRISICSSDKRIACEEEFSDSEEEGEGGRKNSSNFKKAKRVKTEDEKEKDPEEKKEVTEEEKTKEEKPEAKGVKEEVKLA
Assay: Human HDAC enzyme inhibitor Fluor-de-Lys assay, HDAC1
Assay type: biochemical
Conditions: recombinant human HDAC1, Fluor-de-Lys assay
Method: Human HDAC Enzyme Inhibitor Fluor-De-Lys Assay Recombinant human HDAC8 (BML-SE145-0100) and HDAC10 (BML-SE559-0050) enzymes, HDAC substrates BML-KI104 and BML-KI178, and HDAC developer solutions BML-KI105 and BML-KI176 were purchased from Enzo Life Sciences. […] The histone deacetylase activities of HDAC1, HDAC2, HDAC3, HDAC6, and HDAC8 were measured in modified FLUOR DE LYS assays in 384-well format. […] The released AMC is then detected by its fluorescence. […]
Give measured pIC50 for each item. Keep answers brief.
FYI, pIC50 means -log10 of a concentration in mol per litre.

# lookup: `CCC(=O)CCCCC[C@H](NC(=O)[C@H]1CC[C@@]2(CC1)OC(=O)c1ccncc12)c1ncc(-c2ccccc2)[nH]1` on Recombinant human HDAC1 (Homo sapiens, UniProt Q13547), pIC50 = 7.03

# lookup: `CCC(=O)CCCCC[C@H](NC(=O)C1=NOC2(CCN(C(=O)OC)CC2)C1)c1ncc(-c2ccccc2)[nH]1` on Recombinant human HDAC1 (Homo sapiens, UniProt Q13547), pIC50 = 6.75

# lookup: `CCC(=O)CCCCC[C@H](NC(=O)[C@H]1CC12CCN(C)CC2)c1ncc(-c2cnc(OC)nc2)[nH]1` on Recombinant human HDAC1 (Homo sapiens, UniProt Q13547), pIC50 = 6.77

# lookup: `CCC(=O)CCCCC[C@H](NC(=O)C1=NOC2(CCN(C(C)C)CC2)C1)c1ncc(-c2ccccc2)[nH]1` on Recombinant human HDAC1 (Homo sapiens, UniProt Q13547), pIC50 = 7.66

----------
Biological target: Recombinant human HDAC1 (Homo sapiens)
Construct: FLAG (C); made in house
Test: Human HDAC enzyme inhibitor Fluor-de-Lys assay, HDAC1
Assay type: biochemical
Settings: recombinant human HDAC1, Fluor-de-Lys assay
Experimental: Human HDAC Enzyme Inhibitor Fluor-De-Lys Assay Recombinant human HDAC8 (BML-SE145-0100) and HDAC10 (BML-SE559-0050) enzymes, HDAC substrates BML-KI104 and BML-KI178, and HDAC developer solutions BML-KI105 and BML-KI176 were purchased from Enzo Life Sciences. […] The histone deacetylase activities of HDAC1, HDAC2, HDAC3, HDAC6, and HDAC8 were measured in modified FLUOR DE LYS assays in 384-well format. […] The released AMC is then detected by its fluorescence. […]
pIC50: −log10 of the molar value.
Cut-off 8 on pIC50, inclusive. At or above means Met; below means Not met.

Textbook exercise: given the entry `CCC(=O)CCCCC[C@H](NC(=O)C1=NOC2(CCN(C(C)=O)CC2)C1)c1ncc(-c2ccccc2)[nH]1` , state whether its pIC50 is greater than or equal to 8.
Not met

Textbook exercise: given the entry CCC(=O)CCCCC[C@H](NC(=O)C1CC12CCN(CC)CC2)c1nc(-c2ccc(F)cc2)[nH]c1-c1cccs1 (stereo partly shown) , state whether its pIC50 is greater than or equal to 8.
Not met

Textbook exercise: given the entry `CCC(=O)CCCCC[C@H](NC(=O)CC1CC2(C1)CN(C)C2)c1ncc(-c2cc3ccccc3nc2O)[nH]1` , state whether its pIC50 is greater than or equal to 8.
Met

Textbook exercise: given the entry `CCC(=O)CCCCC[C@H](NC(=O)[C@H]1CC12CCN(C)CC2)c1ncc(-c2cnc3c(c2)ncn3C)[nH]1` , state whether its pIC50 is greater than or equal to 8.
Not met

Textbook exercise: given the entry `CCC(=O)CCCCC[C@H](NC(=O)C1(N)CC2(CN(C)C2)C1)c1ncc(-c2cc3ccccc3nc2OC)[nH]1` , state whether its pIC50 is greater than or equal to 8.
Met

Textbook exercise: given the entry CCC(=O)CCCCC[C@H](NC(=O)C1CC12CCN(CC)CC2)c1nc(-c2ccc(F)cc2)[nH]c1-c1ccsc1 (stereo partly shown) , state whether its pIC50 is greater than or equal to 8.
Not met

Textbook exercise: given the entry `CCC(=O)CCCCC[C@H](NC(=O)[C@H]1CC12CCN(CC1CC1)CC2)c1ncc(-c2cc3ccc(C)nc3cc2F)[nH]1` , state whether its pIC50 is greater than or equal to 8.
Met

Textbook exercise: given the entry CCC(=O)CCCCC[C@H](NC(=O)[C@H]1CC12CN(C)C2)c1ncc(-c2cc3ccc(C)nc3cc2OC)o1 (single isomer, unassigned) , state whether its pIC50 is greater than or equal to 8.
Met

Textbook exercise: given the entry `CCC(=O)CCCCC[C@H](NC(=O)C1=NOC2(CCN(C)CC2)C1)c1ncc(-c2cc3ccncc3cc2OC)o1` , state whether its pIC50 is greater than or equal to 8.
Met

Textbook exercise: given the entry CCC(=O)CCCCC[C@H](NC(=O)[C@@H]1CC12CN(C)C2)c1ncc(-c2cc3ccc(C)nc3cc2OC)o1 (single isomer, unassigned) , state whether its pIC50 is greater than or equal to 8.
Met

Textbook exercise: given the entry `CCC(=O)CCCCC[C@H](NC(=O)C1=NOC2(CCN(C(C)C)CC2)C1)c1nnc(-c2cc3ccccc3nc2OC)o1` , state whether its pIC50 is greater than or equal to 8.
Not met

Textbook exercise: given the entry `CCC(=O)CCCCC[C@H](NC(=O)[C@H]1CC12CCN(C)CC2)c1ncc(-c2ccc(C(F)(F)F)cc2)[nH]1` , state whether its pIC50 is greater than or equal to 8.
Not met
